- EXPERIMENT SUMMARY: P. aeruginosa biofilm formation inhibitors, primary screen, PAO1 strain, BacTiter-Glo luminescence, LB-PBS (AID 1144)
- CONDITION NOTES: 12 h, higher = more signal

COMPOUND: COCCCNC(=O)[C@]1(CCS(=O)(=O)c2ccccc2)N=C(c2ccc(OCCCO)cc2)O[C@@H]1c1ccccc1CN=[N+]=[N-]
z-score: 0.267
//
COMPOUND: C=C(/C(=C/C[C@H](OC(=O)c1ccncc1)c1ccc(CO)o1)c1cc(C(=O)OC)ccc1OC)C(C)C
z-score: -0.742
//
COMPOUND: C=C(/C(=C/C[C@H](OC(C)=O)c1ccccc1OCCO)c1cc(C(=O)OC)ccc1OC)C(C)C
z-score: 0.48
//
COMPOUND: C=CCOC(=O)[C@H]1[C@@H]2C(=O)O[C@@H](c3ccccc3)[C@@H](c3ccccc3)N2[C@@H](c2ccc(OCCOC(=O)[C@@H]3C[C@@H]4C(=O)N5CCC[C@H]5C(=O)N4[C@@H]3c3ccc(O)cc3)cc2)[C@]12C(=O)Nc1ccc(I)cc12
z-score: -0.42
//
COMPOUND: CCCCCCCCCCC(O)C1C=CC2C(=O)N(C)C(=O)C2N1Nc1ccc([N+](=O)[O-])cc1[N+](=O)[O-] (configuration not stated)
z-score: 0.322
//
COMPOUND: CC(CO)N1C(=O)[C@@H]2[C@H]3C(=O)OCC=C[C@H]3OC23C=CCN(CCN2CCOCC2)C(=O)[C@@H]13 (some centres not stated)
z-score: 1.3
//
COMPOUND: O=C1C[C@@](C(=O)NCCN2CCOCC2)(c2ccc([N+](=O)[O-])cc2)[C@@H](c2ccc(CO)cc2I)N1C1CCCCC1
z-score: -1.36

meta.source: PubChem BioAssay
